assay: Plasma protein binding in mouse; format: ADME, cell-free; settings: read-out: PPB (converted)
// reported fraction unbound for each item listed

Examples from the recorded data:
{"columns": ["line-notation", "fraction unbound"],
 "data": [
  ["CCNC(=O)Nc1ccc(-c2nc(N3CCOCC3)c3c(n2)[C@](C)(CC(C)(C)O)OC3)cc1", 0.14],
  ["CCNC(=O)Nc1ccc(-c2nc(N3CCOC[C@@H]3C)c3c(n2)[C@@](C)(CC(C)(C)O)OC3)cc1", 0.15],
  ["CCNC(=O)Nc1ccc(-c2nc(N3C[C@H]4CC[C@@H](C3)O4)c3c(n2)[C@](C)(CCO)OC3)cc1", 0.11]
]}

Then this compound:
query: For the compound CCNC(=O)Nc1ccc(-c2nc(N3CCOC[C@@H]3C)c3c(n2)[C@@](C)(CCO)OC3)cc1 , what fraction unbound is on record?
result: 0.06
